meta.source: patent US20050203007A1

# measurement.target: T1, secreted, soluble furin (human, UniProt P09958 108-715, limits assumed)
# T1 construct: Secreted, soluble construct; also called human furin
# T1 sequence (P09958 108-715 limits assumed): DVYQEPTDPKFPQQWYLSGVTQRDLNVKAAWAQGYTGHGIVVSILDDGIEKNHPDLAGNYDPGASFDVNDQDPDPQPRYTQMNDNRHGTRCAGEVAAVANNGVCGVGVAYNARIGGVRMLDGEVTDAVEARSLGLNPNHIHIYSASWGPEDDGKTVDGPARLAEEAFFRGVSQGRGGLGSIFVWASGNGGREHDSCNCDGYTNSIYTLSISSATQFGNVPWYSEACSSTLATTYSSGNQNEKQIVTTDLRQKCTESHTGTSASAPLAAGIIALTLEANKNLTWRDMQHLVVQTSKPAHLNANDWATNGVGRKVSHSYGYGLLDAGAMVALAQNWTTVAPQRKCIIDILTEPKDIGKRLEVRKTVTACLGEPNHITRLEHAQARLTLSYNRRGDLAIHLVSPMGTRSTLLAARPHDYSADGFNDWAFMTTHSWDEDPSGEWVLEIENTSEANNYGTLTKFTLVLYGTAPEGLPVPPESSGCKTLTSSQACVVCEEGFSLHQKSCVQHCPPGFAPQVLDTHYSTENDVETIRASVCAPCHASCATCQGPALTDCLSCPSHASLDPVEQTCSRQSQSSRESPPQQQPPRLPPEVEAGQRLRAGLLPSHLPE
# measurement.description: enzyme inhibition, purified variant
pKi: −log10 of the molar value.
measured.endpoint: pKi

1. Asp33Val-R4K1-eglin (designed binder, R4K1 template; N-terminal Met removed) SMGSELKSFPEVVGKTVDQAREYFTLHYPQYVVYFLPEGSRVTKDLRYNRVRVFYNPGTNVVNHVPHVG
2. Tyr49Asp-R4R1-eglin (designed binder, R4R1 template; N-terminal Met removed; also called Asp49-R4R1-eglin; Asp49-R4R1-) SMGSELKSFPEVVGKTVDQAREYFTLHYPQYDVYFLPEGSRVTRDLRDNRVRVFYNPGTNVVNHVPHVG
3. Leu37Gly-R4K1-eglin (designed binder, R4K1 template; N-terminal Met removed) SMGSELKSFPEVVGKTVDQAREYFTLHYPQYDVYFGPEGSRVTKDLRYNRVRVFYNPGTNVVNHVPHVG
### Prompt Lab note: rank above entries, pKi ascending. Provide the labels, sequenced as the question asks.
### Response 3, 1, 2
